assay: time dependent solubility in 2.5% aqueous di-sodium pamoate solution by HPLC; format: physicochemical; conditions: 2.5% aqueous di-sodium pamoate solution, aqueous with cosolvent or surfactant or cyclodextrin, thermodynamic from solid, 930 minutes (15.5 h), read-out: Concentration (solubility by HPLC)
Quantity name: solubility at 930 minutes (µg/mL)
Numbers only, in µg/mL.

[ask] Request the reported solubility at 930 minutes associated with `Cc1cc(-c2nnc3c4ccccc4c(OCc4cn(C)nn4)nn23)no1`
[reply] 1410

====

Test: time dependent solubility in 2.5% aqueous di-sodium pamoate solution by HPLC
Format: physicochemical
Settings: 2.5% aqueous di-sodium pamoate solution, aqueous with cosolvent or surfactant or cyclodextrin, thermodynamic from solid, 1500 minutes (25.0 h), read-out: Concentration (solubility by HPLC)
Procedure: To a stirred, light protected glass vial was added 23.0 mL 2.5% aqueous di-sodium pamoate solution and 42 mg 3-(5-methylisoxazol-3-yl)-6-(1-methyl-1,2,3-triazol-4-yl)methyloxy-1,2,4-triazolo[3,4-a]phthalazine. Aliquots were removed by 3 mL syringe at various time intervals, passed through 0.22 μm Millex-GV low protein binding syringe filters, and diluted to appropriate concentrations with 50/50 MeCN/H2O for HPLC analysis.
Quantity name: solubility at 1500 minutes (µg/mL)
Answers are plain numbers, in µg/mL.

[ask] Entry under review: Cc1cc(-c2nnc3c4ccccc4c(OCc4cn(C)nn4)nn23)no1 [L-822, 179] . Reported solubility at 1500 minutes?
[reply] 1290
